Target Or System: Adrenergic receptor alpha-1 (Homo sapiens) (UniProt P35348+P25100+P35368)
Measurement Protocol: Compound was evaluated for alpha-1 adrenergic receptor activity in isolated rabbit aortic tissue, effective dose (CPD)
Study Conditions: Oryctolagus cuniculus; target entry is the homologue from another species
So basically, if ED50 comes in under 20000 nM it's Fulfilled, and if it's 20000 nM or more it's Not fulfilled.

>>> class_name("CCC1(CC)CC[C@H](C2=NCCN2)c2ccc(O)c(O)c21")
"Not fulfilled"
>>> class_name("Oc1ccc2c(c1O)OCC[C@@H]2C1=NCCN1")
"Fulfilled"
>>> class_name("Oc1ccc2c(c1O)CCCC2C1=NCCN1 (stereo unspecified)")
"Fulfilled"

Please check: ED50 for Oc1ccc2c(c1O)SCC[C@@H]2C1=NCCN1 , strictly under 20000 nM or not?
Fulfilled

Please check: ED50 for C[C@]1(C2=NCCN2)CCCc2c1ccc(O)c2O , strictly under 20000 nM or not?
Fulfilled

Please check: ED50 for CC1(C)CC[C@H](C2=NCCN2)c2ccc(O)c(O)c21 , strictly under 20000 nM or not?
Fulfilled
